# pIC50 listing for each entry below
- system-name: human full-length MKNK1 (Homo sapiens (Human), UniProt Q9BUB5, T344D)
- Sequence (Q9BUB5 other isoform, or with tags, fused parts or gaps T344D): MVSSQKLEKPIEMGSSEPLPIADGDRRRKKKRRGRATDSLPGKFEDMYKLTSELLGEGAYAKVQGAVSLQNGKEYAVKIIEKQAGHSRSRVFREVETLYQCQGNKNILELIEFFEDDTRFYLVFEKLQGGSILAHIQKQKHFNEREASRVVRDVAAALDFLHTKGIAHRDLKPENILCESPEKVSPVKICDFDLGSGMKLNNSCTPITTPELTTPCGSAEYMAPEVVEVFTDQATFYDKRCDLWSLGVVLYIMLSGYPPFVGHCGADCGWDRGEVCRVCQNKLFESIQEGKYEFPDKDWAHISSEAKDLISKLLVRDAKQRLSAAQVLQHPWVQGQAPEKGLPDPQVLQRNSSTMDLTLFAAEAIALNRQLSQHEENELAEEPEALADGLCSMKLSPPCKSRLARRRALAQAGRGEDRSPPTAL
- run-description: MKNK1 kinase high ATP assay (TR-FRET)
- test-parameters: high ATP (2 mM final), 15 min preincubation with enzyme
For clarity, pIC50 is expressed as the negative log10 of concentration in mol/L.

> print(dat)
                              record.smiles                               system.name  quantity.kind  reported.result
1  CC(C)Oc1cc2[nH]ncc2cc1Nc1ncnc2[nH]nc(-c3cccnc3)c12  human full-length MKNK1 (Homo sapiens (Human), UniProt Q9BUB5, T344D)          pIC50             7.20
2  Fc1cc2[nH]ncc2cc1Nc1ncnc2[nH]nc(-c3ccccc3)c12  human full-length MKNK1 (Homo sapiens (Human), UniProt Q9BUB5, T344D)          pIC50             7.82
3     Brc1n[nH]c2ncnc(Nc3ccc4[nH]ncc4c3)c12  human full-length MKNK1 (Homo sapiens (Human), UniProt Q9BUB5, T344D)          pIC50             7.85
4  COc1cc2[nH]ncc2cc1Nc1ncnc2[nH]nc(-c3ccncc3)c12  human full-length MKNK1 (Homo sapiens (Human), UniProt Q9BUB5, T344D)          pIC50             8.70
5   CC(C)Oc1cc2[nH]ncc2cc1Nc1ncnc2[nH]ncc12  human full-length MKNK1 (Homo sapiens (Human), UniProt Q9BUB5, T344D)          pIC50             6.27

Here is another compound to look at.
Req: Please indicate pIC50 recorded for CC(C)Oc1cc2[nH]ncc2cc1Nc1ncnc2[nH]nc(Br)c12
Resp: 9.00

###

- system-name: human full-length MKNK1 (Homo sapiens (Human), UniProt Q9BUB5, T344D)
- run-description: MKNK1 kinase high ATP assay (TR-FRET)
- test-parameters: high ATP (2 mM final), 15 min preincubation with enzyme
quantity-kind: IC50 (nM)
Express it in nM; write the number only.

> print(dat)
                              record.smiles  unit.text  reported.result
1  COc1cc2[nH]ncc2cc1Nc1ncnc2[nH]nc(-c3cccnc3)c12         nM                6
2  Fc1ccc(-c2n[nH]c3ncnc(Nc4cc5cn[nH]c5cc4F)c23)cc1         nM               12
3  CC(C)Oc1cc2[nH]ncc2cc1Nc1ncnc2[nH]nc(-c3ccccc3)c12         nM               19
4  c1cncc(-c2n[nH]c3ncnc(Nc4ccc5[nH]ncc5c4)c23)c1         nM                8

Req: For Fc1cc2[nH]ncc2cc1Nc1ncnc2[nH]nc(Br)c12 , write its IC50.
Resp: 12

Req: Supply measured IC50 of Fc1cc2[nH]ncc2cc1Nc1ncnc2[nH]nc(-c3cccnc3)c12 in your reply.
Resp: 8

###

- system-name: human full-length MKNK1 (Homo sapiens (Human), UniProt Q9BUB5, T344D)
- run-description: MKNK1 kinase high ATP assay (TR-FRET)
- test-parameters: high ATP (2 mM final), 15 min preincubation with enzyme
quantity-kind: pIC50
When answering, recall that pIC50 equals minus log10 of the concentration in mol/L, and write that number alone.

> print(dat)
                              record.smiles  reported.result
1  COc1cc2[nH]ncc2cc1Nc1ncnc2[nH]nc(-c3ccccc3)c12             8.52
2   COc1cc2[nH]ncc2cc1Nc1ncnc2[nH]nc(Br)c12             9.00
3  COc1cc2[nH]ncc2cc1Nc1ncnc2[nH]nc(-c3ccc(F)cc3)c12             8.70

Req: Fill in reported pIC50 for this entry: Fc1ccc(-c2n[nH]c3ncnc(Nc4ccc5[nH]ncc5c4)c23)cc1
Resp: 7.92

Req: Note pIC50 for the compound shown: CC(C)Oc1cc2[nH]ncc2cc1Nc1ncnc2[nH]nc(-c3ccncc3)c12
Resp: 7.57

Req: Complete the entry with pIC50 for c1ccc(-c2n[nH]c3ncnc(Nc4ccc5[nH]ncc5c4)c23)cc1
Resp: 7.59

Req: For the compound CC(C)Oc1cc2[nH]ncc2cc1Nc1ncnc2[nH]nc(-c3ccc(F)cc3)c12 , report pIC50.
Resp: 7.59

Req: // Input: c1nc(Nc2ccc3[nH]ncc3c2)c2cn[nH]c2n1 . Output its pIC50 only.
Resp: 6.93
